# EXPERIMENTAL_CONTEXT: in n-butanol, 313.15 K

{"COMPOUND": "N#CCc1ccc([N+](=O)[O-])cc1", "solubility (mole fraction)": 0.00643}

---

# EXPERIMENTAL_CONTEXT: in ethyl acetate, 313.15 K

{"COMPOUND": "N#CCc1ccc([N+](=O)[O-])cc1", "solubility (mole fraction)": 0.196}

---

# EXPERIMENTAL_CONTEXT: in n-butanol, 303.15 K

{"COMPOUND": "N#CCc1ccc([N+](=O)[O-])cc1", "solubility (mole fraction)": 0.00388}

---

# EXPERIMENTAL_CONTEXT: in ethyl acetate, 303.15 K
MEASUREMENT_KIND: solubility (mole fraction)

{"COMPOUND": "N#CCc1ccc([N+](=O)[O-])cc1", "REPORTED_RESULT": 0.17}

---

# EXPERIMENTAL_CONTEXT: in ethylbenzene, 298.15 K
MEASUREMENT_KIND: solubility (mole fraction)

{"COMPOUND": "N#CCc1ccc([N+](=O)[O-])cc1", "MEASUREMENT_KIND": "solubility (mole fraction)", "REPORTED_RESULT": 0.0118}

---

# EXPERIMENTAL_CONTEXT: in acetonitrile, 278.15 K

{"COMPOUND": "N#CCc1ccc([N+](=O)[O-])cc1", "solubility (mole fraction)": 0.0361}

---

# EXPERIMENTAL_CONTEXT: in methanol, 278.15 K

{"COMPOUND": "N#CCc1ccc([N+](=O)[O-])cc1", "solubility (mole fraction)": 0.00237}

---

# EXPERIMENTAL_CONTEXT: in n-propanol, 328.15 K
MEASUREMENT_KIND: solubility (mole fraction)

{"COMPOUND": "N#CCc1ccc([N+](=O)[O-])cc1", "MEASUREMENT_KIND": "solubility (mole fraction)", "REPORTED_RESULT": 0.0135}

---

# EXPERIMENTAL_CONTEXT: in methanol, 323.15 K
MEASUREMENT_KIND: solubility (mole fraction)

{"COMPOUND": "N#CCc1ccc([N+](=O)[O-])cc1", "REPORTED_RESULT": 0.017}

---

# EXPERIMENTAL_CONTEXT: in isopropanol, 303.15 K

{"COMPOUND": "N#CCc1ccc([N+](=O)[O-])cc1", "solubility (mole fraction)": 0.00332}

---

# EXPERIMENTAL_CONTEXT: in water, 293.15 K

{"COMPOUND": "N#CCc1ccc([N+](=O)[O-])cc1", "solubility (mole fraction)": "2.98e-05"}

---

# EXPERIMENTAL_CONTEXT: in acetone, 293.15 K

{"COMPOUND": "N#CCc1ccc([N+](=O)[O-])cc1", "solubility (mole fraction)": 0.0859}

---

# EXPERIMENTAL_CONTEXT: in ethylbenzene, 283.15 K

{"COMPOUND": "N#CCc1ccc([N+](=O)[O-])cc1", "solubility (mole fraction)": 0.00685}

---

# EXPERIMENTAL_CONTEXT: in methanol, 288.15 K
MEASUREMENT_KIND: solubility (mole fraction)

{"COMPOUND": "N#CCc1ccc([N+](=O)[O-])cc1", "MEASUREMENT_KIND": "solubility (mole fraction)", "REPORTED_RESULT": 0.00336}
